# Experiment: Sorafenib plasma pharmacokinetics
# Format: in vivo, human
# Conditions: human, plasma, oral, 400 mg, C max (mean), Non-EIAED patients, day 28 of cycle 1, plasma
Measured Parameter: Cmax (ng/mL)

>>> result("CNC(=O)c1cc(Oc2ccc(NC(=O)Nc3ccc(Cl)c(C(F)(F)F)c3)cc2)ccn1")
8120

---

# Experiment: Sorafenib plasma pharmacokinetics
# Assay type: in vivo, human
# Conditions: human, plasma, oral, 400 mg, AUC0–8 (mean), patients not on EIAEDs, day 1, n = 5 per group
Measured Parameter: AUC(0-t) (µg·h/mL)

>>> result("CNC(=O)c1cc(Oc2ccc(NC(=O)Nc3ccc(Cl)c(C(F)(F)F)c3)cc2)ccn1 [Sorafenib]")
11.1
